- target-of-assay: Asc-2-rBAT (Mus musculus, UniProt Q8VIE6+Q91WV7)
- Construct: expressed in transfected cells; host or cells: oocyte injected with cRNA
- Sequence (Q8VIE6+Q91WV7 with tags, fused parts or gaps): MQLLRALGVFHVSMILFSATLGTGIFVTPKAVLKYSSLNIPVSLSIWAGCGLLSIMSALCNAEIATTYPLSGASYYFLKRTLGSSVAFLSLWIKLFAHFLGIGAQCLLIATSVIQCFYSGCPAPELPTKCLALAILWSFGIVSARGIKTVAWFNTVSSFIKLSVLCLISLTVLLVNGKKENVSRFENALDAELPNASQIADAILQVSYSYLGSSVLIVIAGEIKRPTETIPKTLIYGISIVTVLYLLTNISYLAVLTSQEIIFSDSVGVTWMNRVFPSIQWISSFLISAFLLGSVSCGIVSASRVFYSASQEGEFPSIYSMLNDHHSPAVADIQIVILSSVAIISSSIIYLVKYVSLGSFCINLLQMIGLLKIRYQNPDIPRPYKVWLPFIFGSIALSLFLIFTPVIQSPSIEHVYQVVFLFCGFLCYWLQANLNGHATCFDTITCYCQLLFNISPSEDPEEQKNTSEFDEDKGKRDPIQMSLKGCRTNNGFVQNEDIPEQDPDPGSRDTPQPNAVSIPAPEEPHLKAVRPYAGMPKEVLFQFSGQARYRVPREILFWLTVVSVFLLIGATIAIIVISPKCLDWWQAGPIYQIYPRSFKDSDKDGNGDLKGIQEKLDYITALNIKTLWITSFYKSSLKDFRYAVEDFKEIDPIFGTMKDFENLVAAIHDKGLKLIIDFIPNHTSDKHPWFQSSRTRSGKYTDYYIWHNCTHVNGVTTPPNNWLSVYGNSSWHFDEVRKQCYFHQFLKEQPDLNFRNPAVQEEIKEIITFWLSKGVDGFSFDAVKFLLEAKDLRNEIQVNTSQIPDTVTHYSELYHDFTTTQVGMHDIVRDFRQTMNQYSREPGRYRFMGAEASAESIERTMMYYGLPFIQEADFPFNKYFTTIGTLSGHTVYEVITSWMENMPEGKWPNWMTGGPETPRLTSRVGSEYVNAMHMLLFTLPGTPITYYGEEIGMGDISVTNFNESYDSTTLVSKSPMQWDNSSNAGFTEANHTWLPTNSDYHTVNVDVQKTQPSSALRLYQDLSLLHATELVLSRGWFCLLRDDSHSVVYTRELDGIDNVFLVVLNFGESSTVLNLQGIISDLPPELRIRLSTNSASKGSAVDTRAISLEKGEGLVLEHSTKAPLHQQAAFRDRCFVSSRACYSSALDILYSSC
- protocol: Michaelis-Menten test of amino acid uptake by Xenopus oocytes injected with Asc-2-rBAT fusion protein cRNA
- Type: cell-based
- assay-conditions: Asc-2-rBAT expressed in oocyte; serine = 1.00; mean ± standard error, n=3
value-type: Vmax (ratio to the Vmax of serine)

Answered cases to consult:
>>> reading("NCC(=O)O [Glycine]")
1.18
>>> reading("C[C@H](N)C(=O)O [L-Alanine]")
0.83

A. CC(C)[C@H](N)C(=O)O [L-Valine]
B. CC(C)C[C@H](N)C(=O)O [L-Leucine]
C. N[C@@H](CS)C(=O)O [L-Cysteine]
D. C[C@@H](O)[C@H](N)C(=O)O [L-Threonine]
## Input Put the items in order so that reported Vmax (ratio to the Vmax of serine) rises from first to last. Output spec: labels arranged per the requested ranking.
## Output C, D, A, B
(C: 0.19, D: 0.53, A: 0.79, B: 1.17)
